test: compound fluorescence in toxin protease inhibitor counterscreen, primary screen, artefact control for toxin protease inhibitor project, biochemical, multiplex microsphere, HTS (AID 624483); settings: compound autofluorescence counterscreen, microsphere flow cytometry; stronger effect = higher value
The campaign covered roughly 360,000 compounds. About 11,000 (3.1%) were called active. Roughly 2% stayed inconclusive and do not appear here. What follows is part of a selection rich in actives, with near analogues and random picks from the rest.
reported endpoint: fluorescence intensity
Please state the value as a number alone, without comment.

Previously resolved entries follow.
| compound | fluorescence intensity |
| --- | --- |
| O=S(=O)(NCc1ccccc1)c1ccc(S(=O)(=O)N2CCCC2)cc1 | 4970 |
| O=C(NCc1ccc2c(c1)OCO2)C12CC3CC(CC(C3)C1)C2 | 21300 |
| CC(=O)Nc1cc(-c2ccccc2F)cn2c(-c3cccc(C(F)(F)F)c3)cnc12 | 3600 |
| OC[C@@H]1CN(Cc2ccc(-c3ccccc3)cc2)C[C@H](n2cnc3c(NC4CCCC4)ncnc32)O1 | 3740 |

Return fluorescence intensity (reported value) for this compound: OC[C@@H]1CN(C2CCCC2)C[C@H](n2cnc3c(NC4CCC4)ncnc32)O1
2860

* * *

assay: compound fluorescence in toxin protease inhibitor counterscreen, primary screen, artefact control for toxin protease inhibitor project, biochemical, multiplex microsphere, HTS (AID 624483); conditions: compound autofluorescence counterscreen, microsphere flow cytometry
In all, about 360,000 compounds went through this assay and about 11,000 (3.1%) were called active. Roughly 2% stayed inconclusive and do not appear here. No stated cut-off is given here; in the data, active means fluorescence intensity above about 16000; inconclusive means no clear call, values can overlap the other calls; inactive means below that. Only a selection was taken, and actives are over-represented in it overall.
Give your call using only these classes: 1.0 (active), 0.0 (inactive)

| compound | label |
| --- | --- |
| Cc1ccc(S(=O)(=O)NC2CCCCCC2)cc1 | 0.0 |
| COc1ccccc1Cc1c(-c2ccc(Cl)cc2)nc2ccc(Cl)cn12 | 0.0 |
| COc1ccc(-c2cc(NC=O)c3ncc(-c4ccccc4)n3c2)cc1OC | 0.0 |
| Cc1ccc(CN2C(=O)N/C(=C/c3cc(C)n(-c4ccccn4)c3C)C2=O)cc1 | 0.0 |
| Cc1ccccc1-n1c(C)cc(/C=C2\NC(=O)NC2=O)c1C | 1.0 |
| Cc1cccc(CCNS(=O)(=O)c2ccc3c(c2)NC(=O)CO3)c1 | 0.0 |
| C=CCc1cccc2cc(C(=O)OCC)c(=O)oc12 | 0.0 |
| COC(=O)c1ccccc1NC(=O)C1CCN(S(=O)(=O)c2cc(OC)ccc2OC)CC1 | 1.0 |

Please state the recorded outcome for this compound: C#CCOc1ccccc1/C=C1/C(=O)ON=C1C
0.0

Please state the recorded outcome for this compound: CC(NC(=O)c1ccco1)C(=O)Nc1nc(-c2ccccn2)cs1 (stereo unspecified)
1.0

Please state the recorded outcome for this compound: Nc1[nH]c(C(=O)c2ccccc2)c(-c2ccc(Br)cc2)c1C(=O)NC1CC1
0.0

Please state the recorded outcome for this compound: CC(=O)N1CCC(N(C(=O)Nc2ccc(Cl)cc2)C(C)C)CC1
0.0

Please state the recorded outcome for this compound: CC(C)[C@@H](C(=O)OCC(=O)c1ccc2c(c1)NC(=O)CO2)N1C(=O)c2ccccc2C1=O
0.0

Please state the recorded outcome for this compound: CN(C)c1ccnc(Oc2ccc(F)cc2)c1C#N
0.0

Please state the recorded outcome for this compound: COc1ccc(NC(=O)C2Cc3c(-c4ccc(Cl)cc4)ccnc3O2)cc1 (stereo unspecified)
0.0

Please state the recorded outcome for this compound: O=C(CC(c1ccccc1)c1ccccc1)NCC(O)c1ccc([N+](=O)[O-])cc1 (stereo unspecified)
0.0

Please state the recorded outcome for this compound: CC(OC(=O)CNC(=O)c1ccco1)C(=O)Nc1ccc(Cl)cn1 (stereo unspecified)
0.0

Please state the recorded outcome for this compound: COc1ccc2c(CC(=O)NNC(=O)c3ccccc3F)coc2c1
0.0

Please state the recorded outcome for this compound: Cc1cc(NC(=O)[C@H](C)NC(=O)c2ccco2)ccc1Br
0.0

Please state the recorded outcome for this compound: Cc1ccccc1CSc1nnc(-c2ccccn2)n1N
1.0

Please state the recorded outcome for this compound: CC(=O)N1CCN(Cc2cc(=O)oc3cc(C)ccc23)CC1
0.0

Please state the recorded outcome for this compound: COc1cc(NC(=O)c2ccc(CNc3c(N4CCCC4)c(=O)c3=O)cc2)cc(OC)c1OC
0.0

Please state the recorded outcome for this compound: CCCCn1c(SCC(=O)N2CCOCC2)nc2c1c(=O)n(C)c(=O)n2C
0.0

Please state the recorded outcome for this compound: CC1(C(=O)NCc2ccc3c(c2)OCO3)CCN1C(=O)Cc1cccc2ccccc12 (stereo unspecified)
0.0

Please state the recorded outcome for this compound: O=C(c1c(F)cccc1Cl)N1CCN(c2ccccn2)CC1
0.0

Please state the recorded outcome for this compound: CCOC(=O)N1CCC(Nc2c(NCCN3CCN(c4cccc(Cl)c4)CC3)c(=O)c2=O)CC1
0.0

Origin of the recorded values: PubChem BioAssay AID624483
